# credit: patent US20100298377A1

# pIC50 annotations
tested on: MIA PaCa-2 cells (human pancreatic carcinoma cells); assay: Proliferation of MIA PaCa-2 cells, intracellular ATP, CellTiter-Glo test; format: cell-based; conditions: 96 hours
pIC50: −log10 of the molar value.
Measure Name: pIC50

O=C(Nc1ccc2[nH]ncc2c1)N[C@@H](c1cc(Cl)cc(Cl)c1)[C@@H]1CCCCN1	5.03
O=C(Nc1ccc2[nH]ncc2c1)N[C@@H](c1cc(F)cc(Cl)c1)[C@@H]1CCCCN1	5.00
CN1CCCCC1C(NC(=O)Nc1cc(F)c2[nH]nc(N)c2c1)c1ccccc1 (stereo not shown)	5.00
O=C(Nc1ccc2[nH]ncc2c1)NC(c1cc(F)cc(Cl)c1)C1CCCCN1 (stereo not shown)	5.15
